measurementDescription: Solubility in simulated gastric/intestinal fluids and pH media
Type: physicochemical
statedConditions: fed-state simulated intestinal fluid (Phares FeSSIF), fessif, thermodynamic from solid, Batch 2, Phares FeSSIF pH .5, 4 hr
Counter-ions that a name gives are not always drawn.
endpoint: solubility at 4 hr
State the value, then name its unit.

Exercise: Requested read-out: solubility at 4 hr. Entry: Cc1c(F)cccc1NC(=O)Nc1ccc(Cl)c(S(=O)(=O)[C@H]2CCCNC2)c1O [HBr Salt]
Key: 846 µg/mL

* * *

measurementDescription: Solubility in simulated gastric/intestinal fluids and pH media
Type: physicochemical
statedConditions: pH 2, aqueous buffer, thermodynamic from solid, pH 2.0, 4 hr
endpoint: solubility at 4 h (µg/mL)
Answer format: numeric, µg/mL implied, no suffix.

Exercise: Report solubility at 4 h for Cc1c(F)cccc1NC(=O)Nc1ccc(Cl)c(S(=O)(=O)[C@H]2CCCNC2)c1O [Micronised free base, reference compound] please.
Key: 662

Just for reference, patent US9809540B2 is where these values come from.
